Data credit: the supplement of paper PMC12667976

B1: library; numbered along this chain (parent)
chain: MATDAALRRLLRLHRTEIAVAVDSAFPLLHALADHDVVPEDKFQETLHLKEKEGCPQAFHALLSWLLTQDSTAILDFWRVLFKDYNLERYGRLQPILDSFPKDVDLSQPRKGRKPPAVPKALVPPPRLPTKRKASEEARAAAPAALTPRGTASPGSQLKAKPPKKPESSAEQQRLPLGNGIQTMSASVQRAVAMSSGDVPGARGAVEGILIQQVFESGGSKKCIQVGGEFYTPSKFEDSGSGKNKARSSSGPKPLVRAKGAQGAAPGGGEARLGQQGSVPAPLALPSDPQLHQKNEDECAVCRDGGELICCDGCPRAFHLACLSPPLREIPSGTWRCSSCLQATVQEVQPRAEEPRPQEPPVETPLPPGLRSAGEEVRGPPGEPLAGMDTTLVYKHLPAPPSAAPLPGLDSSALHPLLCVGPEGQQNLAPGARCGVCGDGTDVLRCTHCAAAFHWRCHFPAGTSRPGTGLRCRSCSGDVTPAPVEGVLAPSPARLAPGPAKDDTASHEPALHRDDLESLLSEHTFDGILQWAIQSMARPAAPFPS

# Variants of: B1
# Experiment Summary: AIRE transcriptional activation functional score (insulin promoter-GFP; nonsense median 0, synonymous median 1) (normalised score); higher = higher AIRE activity (more reporter activation)
# Cond: with insulin promoter-GFP reporter in HEK293
Class membership depends on AIRE transcriptional activation functional score alone; the intervals are low class = under 0.4, middle class = from 0.4 up to 0.9, high class = 0.9 and over

L308R; high class
E207V; low class
Q213A; middle class
G438P; low class
D34C; low class
P325Y; high class
N295P; high class
Q213I; low class
P162G; high class
I533R; low class
D297T; low class
A141Y; high class
G306P; low class
E517S; low class
A193R; high class
K161A; middle class
Y85I; middle class
I181S; middle class
Q349N; middle class
A403K; high class
S339R; high class
